- TEST DESCRIPTION: soluble on expression in E. coli; label from the status in PepcDB or PDB records
PROPERTY LABEL: soluble on expression in E. coli

Answered examples (4):
{"columns": ["CHAIN SEQUENCE", "soluble on expression in E. coli"],
 "data": [
  ["MGQVEVIDRRQSVFGDDIQLQKRSSSYEIISNGVFLMSTENGRSEREMVTLGAQHMKNAVHSVLIGGLGVGITADEAVHLNDHVQVHVVEIEPSVVEWQYRYLYPFSNQALEHERTAIIISDIQQWLRTNERTYDLICLDTDNGPDWMVHKQNASLYGKIGLELVRERVRVGGAVSFWSASASESFLHELETLFDRVYEHAVSISHTLPPDYVYVACRDLEHHHHHH", "soluble"],
  ["MGSDKIHHHHHHMEGYLNSRLVRNAARVALVVAIPATLAGCGINTIPTQDEATKTAWAEVQNQYQRRADLIPNLVATVKGYAAQEKDVLTAVTEARASATQVKVDASTITDPAQFQKFAAAQDQLSGVLGRLMVIQEQYPDLKSNQNFLALQSQLEGTENRITIARRDYNETAQKYNTTLRTFPSLLWAKTLYSDQKPAQLFQASAAAQSAPTVDFSSPPTATPPKVQ", "not soluble"],
  ["SEKEKGNDDGIPDQENSLDFSEHFNQLELLETHGHLIPTGTQSLWVGNSDEDEEQDDKNEEWYRLQEKKMEKDPSRLLLWAAEKNRLTTVRRLLSEKATHVNTRDEDEYTPLHRAAYSGHLDIVQELIAQGADVHAVTVDGWTPLHSACKWNNTRVASFLLQHDADINAQTKGLLTPLHLAAGNRDSKDTLELLLMNRYVKPGLKNNLEETAFDIARRTSIYHYLFEIVEGCTNSSPQS", "soluble"],
  ["MGSDKIHHHHHHMSNKKLIINADDFGYTPAVTQGIIEAHKRGVVTSTTALPTSPYFLEAMESARISAPTLAIGVHLTLTLNQAKPILPREMVPSLVDEAGYFWHQSIFEEKVNLEEVYNEWDAQIISFMKSGRRPDHIDSHHNVHGKNKKLLGVALALARKYQLPLRNASRSIETKDYLELYQDVRTPDEMLYQFYDKAISTETILQLLDMVVCSEGEVFEINCHPAFIDTILQNQSGYCMPRIREVEILTSQEVKEAIEERGILLANYESLAM", "not soluble"]
]}

Query: // soluble on expression in E. coli lookup, key: MGSDKIHHHHHHMSEALELLGQDIVARAPGVLGHSVAFGELTIVARAASVIDTLTFLRDDAACRFHQLIDLTGVDYPERAARFDVVYHLLSLVKNHRIRLKVSTDEDTPVPSVTPVFPVADWFEREAFDMYGIFFDGHPDLRRILTDYGFHGHPLRKDFPMTGYVEVRYDDELKRVVYEPVKITEFRAFDFLSPWEGAKYALPGDEKAQ
Reply: not soluble

Query: Param item: GPGSMNPSKVVQGTPNSVEWDPRNPPDTPFFTETTAVERSRIPTEYIRRMEEATRLYAMHREGRHALHTACQIASWTVATQCCWLCVGVWLTVRGYRHANPAHSFVSGMTSNKVFCRVFTPIPVLGLTMMGVTAAQLPRDVKVLITAREGRMEEENCMKSAFDQCMAALAEGRLAMGKEGILTA
Reply: not soluble

Query: Param item: MGSDKIHHHHHHMTGTANYVEFEPTRMGLYEASIRVKHECPYRRISERYPDLTIREWPLSDCQVLEITTETTPTDELLDEINEIGTVLYESADDNGYHVVTQSCLCSLEDSVIDRFEEHNCLYQSPTIYRQGWEHYTVVAFDSEDVRELLDSLRSDREIELLSKTSISETQIPHSMLAPANQLFEDITDRQLAALQLALESGYYEQPRKTSLRDLAERTAVARSTYEEHLRKAENKLLTNAGQFLRLVTATSTTNPLGVESGRRTEQTAD
Reply: not soluble

Query: Param item: MPVGRKEQIVDCRAVMGLGEGGGLAQRGTFAEGLRNDVVVVAMSPGRRHITKPVCEITYGIREAGIQTSVLVLDAGGGIPSDAPQGSLGSTFGLKPEEAKQVNRHKLCVIHFGNVKSHIIYKARLFLKYVDIPTIIVCQTPVDMEDFAAIGIKTKNVMPLESKTEGKIVEIITGVIRGESAPQKKIDEIIESIKKHLGLEHHHHHH
Reply: not soluble

Query: Param item: GPGSMSTWEQAVEEADKAFAKRDCKAVCEIIEKAESDGTCHVQLMWRRARALHTLGDESLDKSEKERYARDAAVAAERAVEEDPTSAEANLWKAICIGILCDYLTTKERMSNVYVIRDHLLRSLELKSDNPDALHGMGMWSLSLLQISWFERSAASLLFGSLPTVSHEECLKYFLASHELRPSIRNCLALGNLFRYQGNWTEAKTWYQKALDIPAETHAHKQKQDEAVQLLNSC
Reply: soluble

Query: Param item: MKKEIIVYTISDSLGETSQKLLAAASAQYPDISFLNRYNFSFVTTEEELLEILKDALKDKALVVSTLVSKQLITAAKEFSERTGLLYLDLMAPFFELIQAKAGVDPIEEPGRRHQLDRAYFDKISAIEFAVKYDDGKNPQGFLDSDILLLGVSRTSKTPVSMYLANQGYRVSNLPLIPEVPLPPILEEMDPQKMIGLVCSPETLGQIRSSRLASLGLGNETSYTNVERIEQELAYAEEIFAKYGIPVIDVTAKSVEETAFLIKEKLDERNLEHHHHHH
Reply: soluble

Query: Param item: MAIFRDQAENHVEHDRSIEDRRRHRQLVEKSIKENLGDILSEESIIGETKNKKYKIPIRGIKEYQFIYGANNKGVTTGTGEERRGDRISSDKRKAISNNKAGNQEGKDIYETEITLEELMDYIVEDLDLPNLDRKKYSEIIVESAAKKRGYQKYGVRPRLAKKKTVMCKIARKQGKKRALREIGEEAEIGRFPFREDDLRYYKVKKHPKKESNAVMIFIMDVSGSMDNTKKYLARSFFFVLSRFIRRKYNNVAFEFISHTTTAKNVNEYEFFHKGESGGTYISSGINAAIDLIKEKYNPGVWNIYPFYASDGDNWSEDNEKAMEAVNEISDLSNMFGYIELLPSTYSTTMFYRFKKEISKENFVSVTVKEKKDLWNAIKYMLSEELQEKNKELEHHHHHH
Reply: not soluble

* * *

- TEST DESCRIPTION: soluble on expression in E. coli; label from the status in PepcDB or PDB records
PROPERTY LABEL: soluble on expression in E. coli

{"columns": ["CHAIN SEQUENCE", "RESULT"],
 "data": [
  ["MITPSRYPGIYIAPLSSEPTAAHTFKEQAEKALDHISAGPSGRELLQEISKLASKKDRKVTLKEIEINNQCYTDAVLSRRQLEKYEPEDFNENRRIASRLSRKGTFTKGEGSNAIIGWSPDKASIRLNQNGSPLRLGMDNDDKITTLAHELVHVRHVLSGSSLADDGDRYNPRTGSGKEELRAVGLDKYSYSLTKEPSENSIRAEHGLPLRMKYRPHQ", "not soluble"],
  ["TKLTEQQTMNGLLRFGEYQRIIERRSFSLLDMKRFVTALGLESGGYRGEFSDLVNQGQPAIVPISYAGFKHFVVYKGYKDGRVYVADPALGNISFDEVRFKEIWENNTLFLIQVPE", "not soluble"],
  ["MSAPVQCPIHPDVHLIEDHRAGDLVCPACGLVVGDRLVDVGTEWRSFSNERSGNDPSRVGAPENPLLSGGDLSTTIAVGFGGSDSDNSLANAQRKSMNNTDRQMTAAMSLIREMSERIHLPRNIQDSASRIFKDVLESKALRGKNNEAQAAACLYIACRKDGVPRTFKEICAVSRVSKKEIGRCFKIIVRSLETNLEQITSADFMSRFCGNLSLPNSIQAAATRIAKCAVDMDLVAGRTPISIAAAAIYMASQASAEKRSAKEIGDVAGAAEITVRQTYKLLYPKALELFPKDFRFVTPIDALPNS", "not soluble"]
]}

* * *

- TEST DESCRIPTION: soluble on expression in E. coli; label from the status in PepcDB or PDB records

{"columns": ["CHAIN SEQUENCE", "soluble on expression in E. coli"],
 "data": [
  ["MGHHHHHHSHMSHKNMKLKERVLIPVKQYPKFNFVGKILGPQGNTIKRLQEETGAKISVLGKGSMRDKAKEEELRKGGDPKYAHLNMDLHVFIEVFGPPCEAYALMAHAMEEVKKFLVPDMMDDICQEQFLELSYLNGVPEPS", "not soluble"],
  ["MGSDKIHHHHHHMGPVGYTTLDTAVVERRLGVERLGYRVVGEGYVYRHKYKAGGQRVSTLIGRPEPLDPARVLRVLSAGAYNVVLISPLHGEDDGGLASYIHNNFSAITAVDLQGYYRGYASVWTPPTARIGSLAHISSDDASDPPREPMANIIVYTRGEAGGEVLSPSGSLTIPPPPKLVEDPTGAGDIFTMVFAIMLFRGAPPGPAAEEAAAKTPEILESIRGDEGFQYSVPHSPSEAFWI", "not soluble"]
]}
